Experiment: Cytotoxicity against human CaEs17 cells after 72 hrs by MTT assay
Type: functional, cell-based
Conditions: CaEs17, 72 h

smiles.record	IC50 (nM)
C=C1C(=O)[C@@]23C(=O)OC[C@]4(C(=O)CCC(C)(C)[C@H]4C=O)[C@@H]2CC[C@@H]1[C@H]3OC(=O)c1ccc(C(F)(F)F)cc1	8960
C=C1C(=O)[C@@]23C(=O)OC[C@]4(C(=O)CCC(C)(C)[C@H]4C=O)[C@@H]2CC[C@@H]1[C@H]3OC(=O)c1ccc(Cl)cc1	2550
CC(=O)O[C@H]1C(=O)[C@@]2(C)[C@H]([C@H](OC(=O)c3ccccc3)[C@]3(O)C[C@H](OC(=O)[C@H](O)[C@@H](NC(=O)c4ccccc4)c4ccccc4)C(C)=C1C3(C)C)[C@]1(OC(C)=O)CO[C@@H]1C[C@@H]2O	430

###

Listed molecules paired with reported IC50
Experiment: Cytotoxicity against human CaEs17 cells after 72 hrs by MTT assay
Type: functional, cell-based
Details: CaEs17, 72 h
value.kind: IC50 (µM)

smiles.record	reported.value
C=C1C(=O)[C@@]23C(=O)OC[C@]4(C(=O)CCC(C)(C)[C@H]4C=O)[C@@H]2CC[C@@H]1[C@H]3OC(=O)c1ccccc1	1.71
C=C1C(=O)[C@@]23C(=O)O[C@H]4CCC(C)(C)[C@H]5[C@H](O)OC[C@@]45[C@@H]2CC[C@@H]1[C@H]3O	30.8
C=C1C(=O)[C@@]23C(=O)O[C@H]4CCC(C)(C)[C@H]5C(=O)OC[C@@]45[C@@H]2CC[C@@H]1[C@H]3O	23.7

###

Below, each entry is listed with its recorded IC50.
Experiment: Cytotoxicity against human CaEs17 cells after 72 hrs by MTT assay
Assay type: functional, cell-based
Conditions: CaEs17, 72 h
value.kind: IC50

smiles.record	value.kind	reported.value
C=C1C(=O)[C@@]23C(=O)OC[C@]4([C@@H](OC(C)=O)CCC(C)(C)[C@H]4C=O)[C@@H]2CC[C@@H]1[C@H]3O	IC50	72.5 µM
C=C1C(=O)[C@@]23C(=O)OC[C@]4(C(=O)CCC(C)(C)[C@H]4C=O)[C@@H]2CC[C@@H]1[C@H]3OC(=O)c1ccccc1F	IC50	8.55 µM
C=C1C(=O)[C@@]23C(=O)OC[C@]4(C(=O)CCC(C)(C)[C@H]4C=O)[C@@H]2CC[C@@H]1[C@H]3OC(=O)c1ccc(F)cc1	IC50	8.31 µM
C=C1C(=O)[C@@]23C(=O)OC[C@]4(C(=O)CCC(C)(C)[C@H]4C=O)[C@@H]2CC[C@@H]1[C@H]3OC(=O)c1ccc(OC)cc1	IC50	2.98 µM
C=C1C(=O)[C@@]23C(=O)OC[C@]4(C(=O)CCC(C)(C)[C@H]4C=O)[C@@H]2CC[C@@H]1[C@H]3OC(=O)c1ccc(C)cc1	IC50	1.05 µM

###

System: MGC-803
Experiment: Cytotoxicity against human MGC803 cells after 72 hrs by MTT assay
Format: functional, cell-based
Conditions: MGC-803, 72 h
Catalogue of compounds with associated IC50

smiles.record	IC50
C=C1C(=O)[C@@]23C(=O)OC[C@]4(C(=O)CCC(C)(C)[C@H]4C=O)[C@@H]2CC[C@@H]1[C@H]3OC(=O)c1ccc(Cl)cc1	3120 nM
C=C1C(=O)[C@@]23C(=O)OC[C@]4(C(=O)CCC(C)(C)[C@H]4C=O)[C@@H]2CC[C@@H]1[C@H]3OC(=O)c1ccc(OC)cc1	1870 nM
C=C1C(=O)[C@@]23C(=O)OC[C@]4(C(=O)CCC(C)(C)[C@H]4C=O)[C@@H]2CC[C@@H]1[C@H]3OC(=O)c1ccc(F)cc1	3960 nM
CC(=O)O[C@H]1C(=O)[C@@]2(C)[C@H]([C@H](OC(=O)c3ccccc3)[C@]3(O)C[C@H](OC(=O)[C@H](O)[C@@H](NC(=O)c4ccccc4)c4ccccc4)C(C)=C1C3(C)C)[C@]1(OC(C)=O)CO[C@@H]1C[C@@H]2O	850 nM
C=C1C(=O)[C@@]23C(=O)OC[C@]4(C(=O)CCC(C)(C)[C@H]4C=O)[C@@H]2CC[C@@H]1[C@H]3OC(=O)CC	1780 nM
C=C1C(=O)[C@@]23C(=O)OC[C@]4(C(=O)CCC(C)(C)[C@H]4C=O)[C@@H]2CC[C@@H]1[C@H]3OC(=O)c1ccc(C)cc1	2240 nM
C=C1C(=O)[C@@]23C(=O)OC[C@]4(C(=O)CCC(C)(C)[C@H]4C=O)[C@@H]2CC[C@@H]1[C@H]3OC(=O)c1ccc([N+](=O)[O-])cc1	3330 nM

###

Assay: Cytotoxicity against human CaEs17 cells after 72 hrs by MTT assay
Type: functional, cell-based
Conditions: CaEs17, 72 h

smiles.record	IC50 (µM)
C=C1C(=O)[C@@]23C(=O)OC[C@]4(C(=O)CCC(C)(C)[C@H]4C=O)[C@@H]2CC[C@@H]1[C@H]3OC(=O)CC	1.4
C=C1C(=O)[C@]23[C@H](O)[C@H]1CC[C@H]2[C@@]12CO[C@]3(O)[C@@H](O)[C@@H]1C(C)(C)CC[C@@H]2O	11
C=C1C(=O)[C@@]23C(=O)OC[C@]4(C(=O)CCC(C)(C)[C@H]4C=O)[C@@H]2CC[C@@H]1[C@H]3OC(=O)c1ccc([N+](=O)[O-])cc1	2.68
C=C1C(=O)[C@@]23C(=O)OC[C@]4(C(=O)CCC(C)(C)[C@H]4C=O)[C@@H]2CC[C@@H]1[C@H]3OC(=O)c1ccccc1Cl	2.01
C=C1C(=O)[C@@]23C(=O)OC[C@]4(C(=O)CCC(C)(C)[C@H]4C=O)[C@@H]2CC[C@@H]1[C@H]3OC(C)=O	1.35
C=C1C(=O)[C@@]23C(=O)OC[C@]4(C(=O)CCC(C)(C)[C@H]4C=O)[C@@H]2CC[C@@H]1[C@H]3O	5.85

###

System: MGC-803
Assay: Cytotoxicity against human MGC803 cells after 72 hrs by MTT assay
Type: functional, cell-based
Conditions: MGC-803, 72 h
pIC50: −log10 of the molar value.
Quick list: pIC50 per entry.
value.kind: pIC50

compound	measurement.target	reported.value
C=C1C(=O)[C@@]23C(=O)OC[C@]4(C(=O)CCC(C)(C)[C@H]4C=O)[C@@H]2CC[C@@H]1[C@H]3OC(=O)c1ccccc1	MGC-803	5.72
C=C1C(=O)[C@@]23C(=O)OC[C@]4(C(=O)CCC(C)(C)[C@H]4C=O)[C@@H]2CC[C@@H]1[C@H]3OC(=O)c1ccc(C(F)(F)F)cc1	MGC-803	5.31
C=C1C(=O)[C@@]23C(=O)OC[C@]4(C(=O)CCC(C)(C)[C@H]4C=O)[C@@H]2CC[C@@H]1[C@H]3OC(=O)c1ccccc1Cl	MGC-803	5.58
C=C1C(=O)[C@@]23C(=O)OC[C@]4(C(=O)CCC(C)(C)[C@H]4C=O)[C@@H]2CC[C@@H]1[C@H]3OC(=O)c1ccccc1F	MGC-803	5.40
C=C1C(=O)[C@]23[C@H](O)[C@H]1CC[C@H]2[C@@]12CO[C@]3(O)[C@@H](O)[C@@H]1C(C)(C)CC[C@@H]2O [ORIDONIN]	MGC-803	5.24
C=C1C(=O)[C@@]23C(=O)OC[C@]4(C(=O)CCC(C)(C)[C@H]4C=O)[C@@H]2CC[C@@H]1[C@H]3OC(C)=O	MGC-803	5.78
